Molecular target: T1, RB69 DNA polymerase gp43 PolS565G/Y567A Exo+ (bacteriophage RB69, UniProt Q38087 1-903, S565G;Y567A)
T1 sequence: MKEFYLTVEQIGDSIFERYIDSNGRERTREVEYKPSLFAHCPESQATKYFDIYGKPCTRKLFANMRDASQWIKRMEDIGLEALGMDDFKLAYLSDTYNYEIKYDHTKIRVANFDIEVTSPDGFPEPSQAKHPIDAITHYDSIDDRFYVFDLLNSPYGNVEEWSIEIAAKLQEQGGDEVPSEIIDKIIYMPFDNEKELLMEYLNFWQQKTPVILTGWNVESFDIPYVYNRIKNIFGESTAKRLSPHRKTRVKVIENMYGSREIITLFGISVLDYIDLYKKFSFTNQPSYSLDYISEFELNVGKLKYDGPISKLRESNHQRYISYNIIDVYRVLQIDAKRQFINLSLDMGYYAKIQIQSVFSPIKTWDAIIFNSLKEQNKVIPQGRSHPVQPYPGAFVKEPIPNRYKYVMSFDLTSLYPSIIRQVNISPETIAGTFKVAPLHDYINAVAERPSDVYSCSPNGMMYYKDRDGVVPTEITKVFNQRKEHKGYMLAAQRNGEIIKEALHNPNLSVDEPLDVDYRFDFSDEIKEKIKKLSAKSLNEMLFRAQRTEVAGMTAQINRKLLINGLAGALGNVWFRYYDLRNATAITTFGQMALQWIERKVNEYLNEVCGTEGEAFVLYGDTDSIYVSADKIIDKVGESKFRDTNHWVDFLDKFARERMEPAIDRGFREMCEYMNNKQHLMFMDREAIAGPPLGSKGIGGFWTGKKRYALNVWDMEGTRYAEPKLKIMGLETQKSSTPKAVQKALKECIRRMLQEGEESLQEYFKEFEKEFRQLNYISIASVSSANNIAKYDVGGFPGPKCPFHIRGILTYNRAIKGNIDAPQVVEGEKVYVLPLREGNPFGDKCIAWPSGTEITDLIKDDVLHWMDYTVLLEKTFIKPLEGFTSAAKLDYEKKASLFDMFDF
Assay: EMSA
Exercise: state measured Kd for each of the binders provided.
# number only, unit nM dropped from output

Request: Using known records, supply Kd for mismatched dsDNA primer/template 20/30-mer, terminal T·G (dsDNA) DNA 1: ATGTGCTGCAAGGCGATTAG DNA 2: GTTACCCAACTTAATCGCCTTGCAGCACAT
Result: 79.9

Request: Using known records, supply Kd for normal dsDNA primer/template 20/35-mer (dsDNA) DNA 1: TTTGATGTATTATCAATTGT DNA 2: TGCCTTCGTAATCTTACAATTGATAATACATCAAA
Result: 29.9
